# test.target: ECD of CaSR (Homo sapiens)
# Construct: made in house; host or cells: HEK293S (GnTI-) suspension culture, secreted
# Sequence (P41180 20-612): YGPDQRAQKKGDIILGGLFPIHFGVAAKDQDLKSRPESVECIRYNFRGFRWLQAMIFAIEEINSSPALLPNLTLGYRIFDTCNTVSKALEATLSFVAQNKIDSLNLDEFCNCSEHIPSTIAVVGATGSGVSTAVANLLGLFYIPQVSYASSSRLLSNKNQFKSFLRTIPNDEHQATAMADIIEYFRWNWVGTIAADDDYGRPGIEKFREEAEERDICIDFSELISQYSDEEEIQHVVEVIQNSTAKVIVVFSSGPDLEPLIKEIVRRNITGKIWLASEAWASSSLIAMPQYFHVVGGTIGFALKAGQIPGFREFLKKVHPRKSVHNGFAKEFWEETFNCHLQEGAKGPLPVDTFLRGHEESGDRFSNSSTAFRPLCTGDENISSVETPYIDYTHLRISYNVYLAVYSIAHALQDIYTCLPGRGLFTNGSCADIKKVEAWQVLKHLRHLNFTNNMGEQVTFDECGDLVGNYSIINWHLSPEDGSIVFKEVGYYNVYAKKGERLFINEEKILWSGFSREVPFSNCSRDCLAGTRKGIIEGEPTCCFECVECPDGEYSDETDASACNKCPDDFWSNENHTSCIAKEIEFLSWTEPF
# protocol: Ca2+ binding to the ECD by Trp fluorescence signal change
# test.context: second phase; read-out: Kd, 2-phase Hill equation
pKd: −log10 of the molar value.

| molecule | pKd |
| --- | --- |
| [Ca+2] [Ca^2+, calcium] | 2.00 |
